- protocolSummary: Elimination half-life in rats after single oral gavage
- Type: in vivo
- measurementContext: SD, rat, plasma; male rats, 1.5 mg/kg oral gavage
readoutKind: half-life
Please answer using a numeric value trailed by its unit.

Return half-life (reported value) for this compound: `O=C(O)CNC(=O)C1=C(O)C2(CCCC2)n2c(ccc2-c2ccccc2)C1=O`
6.72 h

---

- protocolSummary: Elimination half-life in rats after single oral gavage
- Type: in vivo
- measurementContext: SD, rat, plasma; male rats, 15.0 mg/kg oral gavage
readoutKind: half-life (h)
A number alone suffices; assume h.

Provide measured half-life value, entry: `O=C(O)CNC(=O)C1=C(O)C2(CCCC2)n2c(ccc2-c2ccccc2)C1=O`
10.2

---

- protocolSummary: Phase 1 single-dose and multiple-dose pharmacokinetics in healthy volunteers
- Assay type: in vivo, Humans
- measurementContext: human, in vivo, oral, single-dose phase, 1-50 mg, healthy volunteers; read-out: median Tmax
readoutKind: Tmax

Provide Tmax value for the following compound: `O=C(O)CNC(=O)C1=C(O)C2(CCCC2)n2c(ccc2-c2ccccc2)C1=O`
3 to 4.5 h

---

- protocolSummary: Elimination half-life in rats after single oral gavage
- Type: in vivo
- measurementContext: SD, rat, plasma; female rats, 15.0 mg/kg oral gavage
readoutKind: half-life
Output should be the measured figure followed by the unit it is expressed in.

Output measured half-life for this item: `O=C(O)CNC(=O)C1=C(O)C2(CCCC2)n2c(ccc2-c2ccccc2)C1=O`
24.9 h

---

- protocolSummary: Phase 1 single-dose and multiple-dose pharmacokinetics in healthy volunteers
- Type: in vivo, Humans
- measurementContext: human, blood, oral, after 10 consecutive days of once daily dosing, 4-30 mg; read-out: mean elimination half-life
readoutKind: half-life

Dear colleague, please send me the reported half-life for `O=C(O)CNC(=O)C1=C(O)C2(CCCC2)n2c(ccc2-c2ccccc2)C1=O` when you can.
12.4 to 15.8 h

---

- protocolSummary: Elimination half-life in rats after single oral gavage
- Type: in vivo
- measurementContext: SD, rat, plasma; female rats, 1.5 mg/kg oral gavage
readoutKind: half-life (h)
// units = h; emit number, no label

Supply reported half-life belonging to this compound: O=C(O)CNC(=O)C1=C(O)C2(CCCC2)n2c(ccc2-c2ccccc2)C1=O [Comp-1]
12.9

---

- protocolSummary: Elimination half-life in rats after single oral gavage
- Assay type: in vivo
- measurementContext: SD, rat, plasma; female rats, 5.0 mg/kg oral gavage
readoutKind: half-life (h)
Form entry: value (h) — number only.

Give the value of half-life reported for the following: `O=C(O)CNC(=O)C1=C(O)C2(CCCC2)n2c(ccc2-c2ccccc2)C1=O`
5.72

---

- protocolSummary: Elimination half-life in rats after single oral gavage
- Type: in vivo
- measurementContext: SD, rat, plasma; male rats, 5.0 mg/kg oral gavage
readoutKind: half-life
# answer = value followed by unit

Find the measured half-life of O=C(O)CNC(=O)C1=C(O)C2(CCCC2)n2c(ccc2-c2ccccc2)C1=O [Comp-1] and report it.
15 h
